This collection of values is drawn from patent US9938281B2.

assay target: PI3K-delta (Homo sapiens)
Construct: Millipore 14-604
assay remarks: HTRF PI3K biochemical assay, delta isoform
condition label: form screened (neutral or TFA salt) given, read-out: PI3Kdelta IC50
IC50: recorded values
Number in nM, nothing else.

{"columns": ["compound", "assay target", "readout name", "endpoint value"],
 "data": [
  ["CCn1c(-c2cnc(C)nc2)nc2c(N[C@H]3CCN(C(=O)NCCOC)C3)ncnc21 [Compound 12-2]", "PI3K-delta (Homo sapiens)", "IC50", 8.9],
  ["CCC(=O)N1CC(Nc2ncnc3c2nc(-c2cnn(CC)c2C)n3C)C1 [Compound 2-45]", "PI3K-delta (Homo sapiens)", "IC50", 57]
]}

Proceeding to the next compound to report its IC50.
[Q] Which IC50 is reported for this compound? CCn1c(-c2cnc(C)nc2)nc2c(N[C@H]3C[C@H](C(=O)NCCO)N(c4ccccn4)C3)ncnc21 [Compound 15-12]
[A] 4.6

* * *

assay target: PI3K-delta (Homo sapiens, UniProt O00329)
Construct: Millipore 14-604
Sequence (O00329 whole entry): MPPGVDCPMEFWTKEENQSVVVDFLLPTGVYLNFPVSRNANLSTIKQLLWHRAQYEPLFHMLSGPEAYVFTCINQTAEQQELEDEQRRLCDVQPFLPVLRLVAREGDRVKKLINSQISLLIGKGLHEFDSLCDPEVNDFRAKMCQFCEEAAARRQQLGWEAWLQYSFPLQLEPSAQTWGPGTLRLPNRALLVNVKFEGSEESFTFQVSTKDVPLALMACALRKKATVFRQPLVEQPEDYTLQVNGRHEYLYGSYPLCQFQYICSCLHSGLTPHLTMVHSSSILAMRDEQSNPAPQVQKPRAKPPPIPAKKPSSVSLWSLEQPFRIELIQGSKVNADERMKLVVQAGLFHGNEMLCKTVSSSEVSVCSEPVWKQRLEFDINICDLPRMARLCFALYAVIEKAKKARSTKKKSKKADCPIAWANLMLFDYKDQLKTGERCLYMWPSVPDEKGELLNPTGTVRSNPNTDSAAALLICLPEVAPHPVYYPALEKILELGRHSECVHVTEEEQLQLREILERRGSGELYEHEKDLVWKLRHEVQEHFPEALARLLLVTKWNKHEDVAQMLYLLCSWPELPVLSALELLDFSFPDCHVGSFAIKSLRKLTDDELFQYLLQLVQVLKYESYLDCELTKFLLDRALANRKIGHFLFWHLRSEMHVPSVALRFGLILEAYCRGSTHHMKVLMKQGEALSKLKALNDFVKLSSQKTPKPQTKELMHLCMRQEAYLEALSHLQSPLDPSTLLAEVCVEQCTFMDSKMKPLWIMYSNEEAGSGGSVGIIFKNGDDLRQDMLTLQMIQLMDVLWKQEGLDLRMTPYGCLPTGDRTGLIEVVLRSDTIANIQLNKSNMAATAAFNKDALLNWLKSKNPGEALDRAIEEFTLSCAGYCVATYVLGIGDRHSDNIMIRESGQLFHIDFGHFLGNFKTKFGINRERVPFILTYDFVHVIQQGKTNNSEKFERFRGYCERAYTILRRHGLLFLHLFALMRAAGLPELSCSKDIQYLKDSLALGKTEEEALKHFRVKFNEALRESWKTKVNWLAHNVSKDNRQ
Sequence (P27986 whole entry partner): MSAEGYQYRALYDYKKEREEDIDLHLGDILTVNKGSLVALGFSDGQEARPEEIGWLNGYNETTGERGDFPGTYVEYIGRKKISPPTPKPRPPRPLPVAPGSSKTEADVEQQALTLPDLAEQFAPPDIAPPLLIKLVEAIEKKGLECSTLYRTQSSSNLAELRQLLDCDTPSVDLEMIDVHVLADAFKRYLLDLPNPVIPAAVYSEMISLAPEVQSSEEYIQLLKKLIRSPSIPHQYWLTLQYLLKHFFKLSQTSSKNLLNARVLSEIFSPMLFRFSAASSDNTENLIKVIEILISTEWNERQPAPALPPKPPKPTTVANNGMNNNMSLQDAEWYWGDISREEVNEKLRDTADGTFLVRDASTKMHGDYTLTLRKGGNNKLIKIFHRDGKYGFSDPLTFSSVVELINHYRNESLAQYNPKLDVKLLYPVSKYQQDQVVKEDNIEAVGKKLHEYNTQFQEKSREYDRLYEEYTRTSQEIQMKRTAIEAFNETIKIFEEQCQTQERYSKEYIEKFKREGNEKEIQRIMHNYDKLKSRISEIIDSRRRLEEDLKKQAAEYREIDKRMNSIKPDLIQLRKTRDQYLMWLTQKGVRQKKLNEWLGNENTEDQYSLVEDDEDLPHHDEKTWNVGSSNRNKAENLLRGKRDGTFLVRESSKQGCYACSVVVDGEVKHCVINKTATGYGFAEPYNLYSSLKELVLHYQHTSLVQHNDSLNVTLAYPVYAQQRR
assay remarks: HTRF PI3K biochemical assay, delta isoform
condition label: form screened (neutral or TFA salt) given, read-out: PI3Kdelta IC50
readout name: IC50 (nM)
Number in nM, nothing else.

{"columns": ["compound", "IC50 / nM"],
 "data": [
  ["CCC(=O)N1CC[C@H](Nc2ncnc3c2nc(-c2ccc(C)nc2)n3C)C1 [Compound 3-5]", 4.5]
]}

[Q] Which IC50 is reported for this compound? CCC(=O)N1CC[C@H](Nc2ncnc3c2nc(-c2cnn(CC)c2C)n3CC2CC2)C1 [Compound 9-3]
[A] 67

[Q] Which IC50 is reported for this compound? CCn1c(-c2cnc(C)nc2)nc2c(N[C@H]3CCN(C(=O)N4CCC4)C3)ncnc21 [Compound 12-9]
[A] 1.4

[Q] Which IC50 is reported for this compound? CCn1c(-c2cnc(C)nc2)nc2c(N[C@H]3CCN(c4nccc5sccc45)C3)ncnc21 [Compound 4-13]
[A] 14

[Q] Which IC50 is reported for this compound? CCC(=O)N1CC[C@H](Nc2ncnc3c2nc(-c2cnn(CC)c2C)n3C2CC2)C1 [Compound 2-16]
[A] 53

[Q] Which IC50 is reported for this compound? CCC(=O)N1CC[C@H](Nc2ncnc3c2nc(-c2cnc(OC)c(C#N)c2)n3C)C1 [Compound 3-33]
[A] 2.3

[Q] Which IC50 is reported for this compound? CCn1c(-c2cnc(C)nc2)nc2c(N[C@H]3CCN(C(=O)C4CC4(C)C)C3)ncnc21 (mixture of isomers) [Compound 2-56]
[A] 1

[Q] Which IC50 is reported for this compound? CCn1c(-c2cnc(C(C)(C)C)s2)nc2c(N(C)[C@H]3CCN(C(=O)OC(C)(C)C)C3)ncnc21 [Compound 1-7]
[A] 6.7

[Q] Which IC50 is reported for this compound? CCn1c(-c2cnc(C)nc2)nc2c(NC3(C)CCN(C(=O)C4CC4)C3)ncnc21 (racemic) [Compound 3-18]
[A] 2.6

[Q] Which IC50 is reported for this compound? CCn1c(-c2ccc(C(F)(F)F)nc2)nc2c(N[C@H]3CCN(C(=O)C4CC4)C3)ncnc21 [Compound 2-49]
[A] 1

[Q] Which IC50 is reported for this compound? CCn1c(-c2cnc(C)nc2)nc2c(N[C@H]3CCN(c4ccc(C#N)cn4)C3)ncnc21 [Compound 4-11]
[A] 12

[Q] Which IC50 is reported for this compound? CCn1c(-c2cnc(C)nc2)nc2c(N[C@H]3C[C@@H](C(=O)OC)N(C(=O)OC(C)(C)C)C3)ncnc21 [Compound 1-19]
[A] 69

* * *

log10 IC50: recorded values
assay target: PI3K-delta (Homo sapiens, UniProt O00329)
Construct: Millipore 14-604
assay remarks: HTRF PI3K biochemical assay, delta isoform
condition label: form screened (neutral or TFA salt) given, read-out: PI3Kdelta IC50
Form field - Quantity: IC50; Unit: nM; Scale: log10

Field: example entries. Status: answers known.
{"columns": ["compound", "log10 IC50"],
 "data": [
  ["CCn1c(-c2cnc(C)nc2)nc2c(N[C@H]3CC[C@@H](C(=O)N(C)C4CC4)C3)ncnc21", 0.57],
  ["CCn1c(C(F)F)nc2c(N[C@H]3CCN(C(=O)[C@H]4CCCN4C)C3)ncnc21", 2.58],
  ["CCC(=O)N1CC[C@H](N(C)c2ncnc3c2nc(-c2cnc(OC)c(C)c2)n3CC)C1", 0.34],
  ["CCn1c(-c2cnc(C)nc2)nc2c(N[C@H]3CCN(C(=O)N4CC[C@H](OC)C4)C3)ncnc21", 0.20],
  ["CCn1c(-c2cnc(C)nc2)nc2c(N[C@H]3C[C@H](C(=O)NCCO)N(C(=O)C4CC4)C3)ncnc21", 0.76],
  ["CCn1c(-c2cnc(C)nc2)nc2c(N[C@H]3CCN(c4ncccn4)C3)ncnc21", 0.84],
  ["CCn1c(C(N)=O)nc2c(N[C@H]3CCN(C(=O)C4CC4)C3)ncnc21", 1.86],
  ["CCn1c(-c2cnc(C)nc2)nc2c(NC3CN(C(=O)C4CC4)CC3O)ncnc21 (single isomer, unassigned)", 0.46],
  ["CCn1c(-c2cnc(C)nc2)nc2c(N[C@H]3CCN(C(=O)C4(O)CCCC4)C3)ncnc21", 1.34],
  ["CCCN1CC[C@H](Nc2ncnc3c2nc(-c2cnn(CC)c2C)n3C)C1", 1.62]
]}

[Q] Find log10 IC50 (PI3K-delta (Homo sapiens, UniProt O00329)) for the entry CCn1c(-c2cnc(C)nc2)nc2c(N[C@H]3CCN(C(=O)OCCF)C3)ncnc21
[A] 0.94

[Q] Find log10 IC50 (PI3K-delta (Homo sapiens, UniProt O00329)) for the entry CCC(=O)N1CC[C@H](N(C)c2ncnc3c2nc(-c2cnc(OC)c(C)c2)n3C)C1
[A] 1.23

[Q] Find log10 IC50 (PI3K-delta (Homo sapiens, UniProt O00329)) for the entry CCn1c(-c2cnc(C)nc2)nc2c(NC3CN(C(=O)C4CC4)CC3C)ncnc21 (single isomer, unassigned) [Compound 2-87]
[A] 0.23

[Q] Find log10 IC50 (PI3K-delta (Homo sapiens, UniProt O00329)) for the entry CCC(=O)N1CC[C@H](Nc2ncnc3c2nc(-c2cnc(C(C)(C)C)s2)n3C)C1
[A] 0.08

[Q] Find log10 IC50 (PI3K-delta (Homo sapiens, UniProt O00329)) for the entry CCn1c(-c2cnc(C)nc2)nc2c(N[C@H]3C[C@H](C(N)=O)N(c4ccccn4)C3)ncnc21
[A] 0.89

[Q] Find log10 IC50 (PI3K-delta (Homo sapiens, UniProt O00329)) for the entry CCn1c(-c2cnc(C)nc2)nc2c(N[C@H]3CCN(C(=O)[C@H]4CCCN4C)C3)ncnc21
[A] 1.46

* * *

assay target: PI3K-delta (Homo sapiens)
Construct: Millipore 14-604
assay remarks: HTRF PI3K biochemical assay, delta isoform
condition label: form screened (neutral or TFA salt) given, read-out: PI3Kdelta IC50
IC50: recorded values
Number in nM, nothing else.

{"columns": ["compound", "assay target", "readout name", "endpoint value"],
 "data": [
  ["CCn1c(C(=O)NCC(F)(F)F)nc2c(N[C@H]3CCN(C(=O)C4CCC4)C3)ncnc21", "PI3K-delta (Homo sapiens)", "IC50", 3.3]
]}

[Q] Find IC50 (PI3K-delta (Homo sapiens)) for the entry CCn1c(-c2cnc(C)nc2)nc2c(NC3CN(C(=O)C4CC4)CC3C)ncnc21 (racemic) [Compound 3-16]
[A] 3.4

* * *

assay target: PI3K-delta (Homo sapiens, UniProt O00329)
Construct: purchased Upstate; Millipore 14-604
assay remarks: HTRF PI3K biochemical assay, delta isoform
condition label: form screened (neutral or TFA salt) given, read-out: PI3Kdelta IC50
readout name: pIC50
Conceptually, pIC50 converts a concentration in mol/L into minus its log10.

{"columns": ["compound", "pIC50"],
 "data": [
  ["CCn1ncc(-c2nc3c(N(C)[C@H]4CCN(C(=O)OC(C)(C)C)C4)ncnc3n2C)c1C [Compound 1-3]", 7.01],
  ["CCn1c(C(F)F)nc2c(N[C@H]3CCN(C(=O)N4CC(OC)C4)C3)ncnc21 [Compound 7-28]", 8.49]
]}

[Q] Which pIC50 is reported for this compound? CCn1c(-c2cnc(C)nc2)nc2c(N[C@H]3CCN(C(=O)N4CCOCC4)C3)ncnc21 [Compound 12-4]
[A] 8.35

[Q] Which pIC50 is reported for this compound? CCOC(=O)CCNC(=O)N1CC[C@H](Nc2ncnc3c2nc(-c2cnc(C)nc2)n3CC)C1 [Compound 12-17]
[A] 7.89

[Q] Which pIC50 is reported for this compound? CCn1c(-c2cnc(C)nc2)nc2c(N[C@H]3CC[C@@H](C(=O)N4CCC4)C3)ncnc21 [Compound 5-6]
[A] 7.96
